target: Bromodomain-containing protein 4 (Homo sapiens, UniProt O60885); assay: Inhibition of BRD4 (unknown origin) assessed as reduction in c-Myc expression
# pIC50 per entry
Notebook: values listed as pIC50 are -log10 of the concentration (mol/L).

Solved entries:
structure_smiles_string=[2H]C([2H])([2H])c1nnn(C)c1-c1cnc2c3ccc(C(C)(C)O)cc3n([C@H](c3ncccc3F)C3CCOCC3)c2c1 property_label=pIC50 measurement=9.00
structure_smiles_string=[2H]C([2H])([2H])c1nnn(C)c1-c1cnc2c3ccc(C(C)(C)O)cc3n([C@H](c3ccc(Cl)cn3)C3CCOCC3)c2c1 property_label=pIC50 measurement=8.92
structure_smiles_string=Cc1cc([C@H](C2CCOCC2)n2c3cc(C(C)(C)O)ccc3c3ncc(-c4c(C)nnn4C)cc32)n(C)n1 property_label=pIC50 measurement=8.15
structure_smiles_string=[2H]C([2H])([2H])c1nnn(C)c1-c1cnc2c3ccc(C(C)(C)O)c(F)c3n([C@H](c3cc(C)on3)C3CCOCC3)c2c1 property_label=pIC50 measurement=8.41
structure_smiles_string=[2H]C([2H])([2H])c1nnn(C)c1-c1cnc2c3cc(F)c(C(C)(C)O)cc3n([C@H](c3ccccc3)C3CCOCC3)c2c1 property_label=pIC50 measurement=8.70
structure_smiles_string=[2H]C([2H])([2H])c1nnn(C)c1-c1cnc2c3c(F)cc(C(C)(C)O)cc3n([C@H](c3cc(C)on3)C3CCOCC3)c2c1 property_label=pIC50 measurement=8.55

Annotate the compound `[2H]C([2H])([2H])c1nnn(C)c1-c1cnc2c3ccc(C(C)(C)O)c(F)c3n([C@H](c3ncccc3F)C3CCOCC3)c2c1` with its measured pIC50. 9.05

---

experiment: Metabolic stability in human liver microsomes assessed as half life measured upto 120 mins; format: ADME, Microsome
Classify: condition met when half-life is strictly less than 1 h; condition not met when half-life is not.

Given the entry `[2H]C([2H])([2H])c1nnn(C)c1-c1cnc2c3c(F)cc(C(C)(C)O)cc3n([C@H](c3cc(C)on3)C3CCOCC3)c2c1` , would its reported half-life be below 1 h? condition not met

Given the entry `[2H]C([2H])([2H])c1nnn(C)c1-c1cnc2c3cc(F)c(C(C)(C)O)cc3n([C@H](c3cc(C)on3)C3CCOCC3)c2c1` , would its reported half-life be below 1 h? condition met

Given the entry `[2H]C([2H])([2H])c1nnn(C)c1-c1cnc2c3ccc(C(C)(C)O)c(F)c3n([C@H](c3ncccc3F)C3CCOCC3)c2c1` , would its reported half-life be below 1 h? condition not met

Given the entry `Cc1cc([C@H](C2CCOCC2)n2c3cc(C(C)(C)O)ccc3c3ncc(-c4c(C)nnn4C)cc32)n(C)n1` , would its reported half-life be below 1 h? condition not met

Given the entry `[2H]C([2H])([2H])c1nnn(C)c1-c1cnc2c3ccc(C(C)(C)O)cc3n([C@H](c3ccc(Cl)cn3)C3CCOCC3)c2c1` , would its reported half-life be below 1 h? condition met

Given the entry `[2H]C([2H])([2H])c1nnn(C)c1-c1cnc2c3ccc(C(C)(C)O)cc3n([C@H](c3ncccc3F)C3CCOCC3)c2c1` , would its reported half-life be below 1 h? condition not met

---

test: Metabolic stability in human liver microsomes assessed as half life measured upto 120 mins; format: ADME, Microsome
Property Label: half-life (h)
I only need the number, in h, no unit after it.

Annotate the compound `[2H]C([2H])([2H])c1nnn(C)c1-c1cnc2c3ccc(C(C)(C)O)cc3n([C@H](c3cc(C)on3)C3CCOCC3)c2c1` with its measured half-life. 1.07

Annotate the compound `[2H]C([2H])([2H])c1nnn(C)c1-c1cnc2c3cc(F)c(C(C)(C)O)cc3n([C@H](c3ccccc3)C3CCOCC3)c2c1` with its measured half-life. 0.867

Annotate the compound `[2H]C([2H])([2H])c1nnn(C)c1-c1cnc2c3ccc(C(C)(C)O)c(F)c3n([C@H](c3cc(C)on3)C3CCOCC3)c2c1` with its measured half-life. 1.32

Annotate the compound `Cc1cc([C@H](C2CCOCC2)n2c3cc(C(C)(C)O)ccc3c3ncc(-c4c(C)nnn4C)cc32)no1` with its measured half-life. 1.02

Sourced from ChEMBL document CHEMBL4808188
